# system-under-test: Cellular tumor antigen p53 (Homo sapiens)
# method-description: TOX21_p53_BLA_p2_ratio: Tox21 HCT-116 p53 Agonism Beta-lactamase Assay, Ratio, Phase 2 (AID 2283592)
Records with an inconclusive call do not appear. Calls of active or inactive are those of the source. The calls were made as follows: active = hit-call score of the fitted dose curve at least 0.9, where 1 is the maximum; inconclusive = response in the unintended direction; inactive = score below 0.9.
Just give me one of these, please: t for active, f for inactive

INPUT: What classification did CC(=O)OC(C(=O)c1ccccc1)c1ccccc1 (configuration not stated) end up with in this test?
OUTPUT: f

INPUT: Any idea what this test logged for COc1ccc(CCNC[C@H](O)c2ccc(O)cc2)cc1OC ?
OUTPUT: f

INPUT: Hi, sorry to bother you, what did the test record for COc1cc(NS(C)(=O)=O)ccc1Nc1c2ccccc2nc2ccccc12 ?
OUTPUT: t

INPUT: Tell me the assay call for O=C(CCBr)N1CCN(C(=O)CCBr)CC1 please.
OUTPUT: f

INPUT: Hi team, can someone confirm the assay call for O=[N+]([O-])c1cccc(S(=O)(=O)NCCNS(=O)(=O)c2cccc([N+](=O)[O-])c2)c1 ?
OUTPUT: f

INPUT: Recorded test outcome, item O=C1c2ccccc2S(=O)(=O)N1CCCCN1CCN(c2ncccn2)CC1
OUTPUT: f

INPUT: Kindly provide the recorded test outcome for the following molecule: CC(C)COCC(CN(Cc1ccccc1)c1ccccc1)N1CCCC1 (configuration not stated)
OUTPUT: f

INPUT: Would you mind telling me which call this test gave C[N+](C)(CCCCCC[N+](C)(C)C1c2ccccc2-c2ccccc21)C1c2ccccc2-c2ccccc21 ?
OUTPUT: f

INPUT: Per the assay record, what outcome was assigned to NC(=O)c1ccc(N)cc1 ?
OUTPUT: f

INPUT: Please state the recorded outcome for this molecule: C#CCN(C)Cc1ccccc1
OUTPUT: f

INPUT: State the result this test recorded for NC(=O)c1ncn([C@@H]2O[C@H](CO)[C@@H](O)[C@H]2O)c1O .
OUTPUT: f

INPUT: For this molecule, state the assay outcome: CCCCCCCCCCCCCCCC(=O)OC(C)C
OUTPUT: f

INPUT: What outcome does the record of this test show for CCC(=O)OCC(=O)[C@@]1(OC(=O)CC)[C@H](C)C[C@H]2[C@H]3[C@H]([C@@H](O)C[C@@]21C)[C@@]1(C)C=CC(=O)C=C1C[C@H]3Cl ?
OUTPUT: f

INPUT: Please indicate how the test categorized COC(=O)CCCCC(=O)O .
OUTPUT: f

INPUT: Query: recorded result category for CCN1CC(CCN2CCOCC2)C(c2ccccc2)(c2ccccc2)C1=O (configuration not stated) in this test
OUTPUT: f

INPUT: Assay outcome for COC[C@H](c1ccc(C(F)(F)F)cc1)N1CCN(C2(C)CCN(C(=O)c3c(C)ncnc3C)CC2)C[C@H]1C : what was it?
OUTPUT: f

INPUT: Which result was noted for this molecule in the test: Cc1ccccn1
OUTPUT: f

INPUT: Assay outcome for O=C(O)c1ccccc1[N+](=O)[O-] : what was it?
OUTPUT: t

INPUT: Test call for this molecule, please: CC(C)OCC1CO1 (configuration not stated)
OUTPUT: f

INPUT: Returns: the outcome recorded for c1ccc2sc(SN3CCOCC3)nc2c1 in this assay.
OUTPUT: f

INPUT: Please let me know the test result on file for O=C1CCCCCCCCCCCCCC1 .
OUTPUT: f

INPUT: Outcome logged for O=C1C(=O)c2ccccc2C(O)=C1C1CCC(c2ccc(Cl)cc2)CC1 (configuration not stated) in this assay:
OUTPUT: t
